measuredOn: human PPARγ (Homo sapiens, UniProt P37231)
Sequence (P37231 238-503 limits assumed): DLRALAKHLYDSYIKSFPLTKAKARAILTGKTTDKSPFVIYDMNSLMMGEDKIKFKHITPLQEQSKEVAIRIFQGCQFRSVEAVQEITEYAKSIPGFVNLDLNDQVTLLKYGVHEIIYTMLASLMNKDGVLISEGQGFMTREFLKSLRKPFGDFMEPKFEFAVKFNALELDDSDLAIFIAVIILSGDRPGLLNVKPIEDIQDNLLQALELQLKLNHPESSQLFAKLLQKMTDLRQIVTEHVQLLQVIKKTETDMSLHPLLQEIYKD
procedureDetails: Transactivation assay (GAL4–hPPARγ-LBD chimera, luciferase reporter, COS-7 cells)
testConditions: GAL4–hPPARγ-LBD
measure: EC50 (nM)
Write it as a number; the unit nM goes unstated.

IN: Could you tell me which EC50 is on file for CCO[C@H](COc1ccc(C(F)(F)F)cc1)CSc1ccc(OCC(=O)O)c(C)c1 [seladelpar] ?
OUT: 3530

IN: Check CCO[C@@H](Cc1ccc(OCCn2c(C)ccc2-c2ccc(SC)cc2)cc1)C(=O)O [saroglitazar] too.
OUT: 311

IN: Same question, CSc1ccc(C(=O)/C=C/c2cc(C)c(OC(C)(C)C(=O)O)c(C)c2)cc1 [elafibranor] this time
OUT: 2120

IN: Same question, O=C(O)CCCc1cc2cc(Cl)ccc2n1S(=O)(=O)c1ccc2ncsc2c1 [lanifibranor] this time
OUT: 572

// data source = paper PMC10451623
